Assay: 28-day once weekly oral repeated-dose DRF study in cynomolgus monkeys (mesylate salt)
Type: in vivo
Details: male, cynomolgus monkey, whole blood, po, 30 mg/kg, M, Day 1
VALUE TYPE: Cmax (ng/mL)
Answers are plain numbers, in ng/mL.

Return reported Cmax; argument: CC(C)C[C@@H]1NCCN([C@@H](CC(C)C)C(=O)N2CCC3(C[C@@H]2C)OCC(CN2CCCC2)CO3)C1=O (stereo partly shown) 229

* * *

Experiment: 14-day daily oral repeated-dose exploratory study in CD-1 mice (mesylate salt)
Assay type: in vivo
Settings: male, CD-1, mouse, in vivo, po, 1 mg/kg, M, Day 1
Protocol: This study explored the TK profile of Compound 1 after 14 days once daily oral dosing in male and female CD-1 mice. Compound 1 (mesylate salt) was administered once daily for 14 consecutive days by oral gavage to groups of CD-1 mice (n=8/sex/group) at dose levels of 0 (control), 1, 5, 10 or 15 mg/kg/day. A suspension of 0.5% Methylcellulose (w/v) and 0.1% Polysorbate 80 (Tween 80) (v/v) was used as vehicle. […]
VALUE TYPE: Cmax (ng/mL)
One number for each entry, in ng/mL.

Given the compound CC(C)C[C@@H]1NCCN([C@@H](CC(C)C)C(=O)N2CCC3(C[C@@H]2C)OCC(CN2CCCC2)CO3)C1=O (stereo partly shown) , what is its reported Cmax? 10.9

* * *

Experiment: 28-day once weekly oral repeated-dose DRF TK study in Beagle dogs (mesylate salt), plasma
Format: in vivo
Conditions: both sexes, Beagle, dog, plasma, po, 10 mg/kg, 10 mg/kg weekly, Day 15
VALUE TYPE: Cmax (ng/mL)
Give bare numbers, in ng/mL.

Given the entry CC(C)C[C@@H]1NCCN([C@@H](CC(C)C)C(=O)N2CCC3(C[C@@H]2C)OCC(CN2CCCC2)CO3)C1=O (stereo partly shown) , report its measured Cmax. 497

* * *

Assay: 14-day daily oral repeated-dose DRF study in cynomolgus monkeys (mesylate salt)
Type: in vivo
Conditions: cynomolgus monkey, plasma, po, 4 mg/kg, 4 mg/kg (Gr. 1), Day 1
VALUE TYPE: Cmax
Remember to put the unit after the number in your answer.

Dear colleague, I am looking for the recorded Cmax of the following compound: CC(C)C[C@@H]1NCCN([C@@H](CC(C)C)C(=O)N2CCC3(C[C@@H]2C)OCC(CN2CCCC2)CO3)C1=O (stereo partly shown) 2.95 ng/mL

* * *

Assay: 14-day daily oral repeated-dose DRF study in cynomolgus monkeys (mesylate salt)
Format: in vivo
Conditions: both sexes, cynomolgus monkey, plasma, po, 8 mg/kg, 8 mg/kg (Gr. 3), Day 5
VALUE TYPE: AUC(0-t) (ng·h/mL)
Answers are plain numbers, in ng·h/mL.

For the compound CC(C)C[C@@H]1NCCN([C@@H](CC(C)C)C(=O)N2CCC3(C[C@@H]2C)OCC(CN2CCCC2)CO3)C1=O (stereo partly shown) , what AUC(0-t) is on record? 92

* * *

Assay: Single dose oral gavage or intravenous PK in female cynomolgus monkeys, plasma
Format: in vivo
Settings: female, cynomolgus monkey, plasma; Day 15 (IV 0.2 mg/kg); read-out: cleared (Cl), mean rate (converted)
VALUE TYPE: clearance (mL/min/kg)
One number for each entry, in mL/min/kg.

Which clearance value belongs to CC(C)C[C@@H]1NCCN([C@@H](CC(C)C)C(=O)N2CCC3(C[C@@H]2C)OCC(CN2CCCC2)CO3)C1=O (stereo partly shown) ? 43.2

* * *

Experiment: 28-day once weekly oral repeated-dose DRF study in cynomolgus monkeys (mesylate salt)
Type: in vivo
Details: male, cynomolgus monkey, whole blood, po, 30 mg/kg, M, Day 22
VALUE TYPE: half-life (h)
Numbers only, in h.

# half-life lookup, item CC(C)C[C@@H]1NCCN([C@@H](CC(C)C)C(=O)N2CCC3(C[C@@H]2C)OCC(CN2CCCC2)CO3)C1=O (stereo partly shown) 2.6

* * *

Test: 5-day daily oral repeated-dose pilot study in Beagle dogs (mesylate salt)
Type: in vivo
Conditions: both sexes, Beagle, dog, plasma, po, 1.5 mg/kg, Day 5; read-out: elimination half-life (converted)
VALUE TYPE: half-life (h)
Answers are plain numbers, in h.

Please give the measured half-life for this compound: CC(C)C[C@@H]1NCCN([C@@H](CC(C)C)C(=O)N2CCC3(C[C@@H]2C)OCC(CN2CCCC2)CO3)C1=O (stereo partly shown) 6.2

* * *

Assay: 14-day daily oral repeated-dose exploratory study in CD-1 mice (mesylate salt)
Assay type: in vivo
Conditions: male, CD-1, mouse, in vivo, po, 5 mg/kg, M, Day 14
Description: This study explored the TK profile of Compound 1 after 14 days once daily oral dosing in male and female CD-1 mice. Compound 1 (mesylate salt) was administered once daily for 14 consecutive days by oral gavage to groups of CD-1 mice (n=8/sex/group) at dose levels of 0 (control), 1, 5, 10 or 15 mg/kg/day. A suspension of 0.5% Methylcellulose (w/v) and 0.1% Polysorbate 80 (Tween 80) (v/v) was used as vehicle. […]
VALUE TYPE: Cmax

Item under review: CC(C)C[C@@H]1NCCN([C@@H](CC(C)C)C(=O)N2CCC3(C[C@@H]2C)OCC(CN2CCCC2)CO3)C1=O (stereo partly shown) [Compound 1] . Reported Cmax? 90 ng/mL

* * *

Assay: 28-day once weekly oral repeated-dose DRF study in cynomolgus monkeys (mesylate salt)
Type: in vivo
Conditions: male, cynomolgus monkey, blood, po, 60 mg/kg, M, Day 22
VALUE TYPE: Tmax (h)
Give bare numbers, in h.

So what does the record say about Tmax for CC(C)C[C@@H]1NCCN([C@@H](CC(C)C)C(=O)N2CCC3(C[C@@H]2C)OCC(CN2CCCC2)CO3)C1=O (stereo partly shown) ? 1

* * *

Assay: Single dose intravenous and oral PK in Beagle dogs (citrate salt)
Type: in vivo
Design: unit not given here
Settings: both sexes, beagle, dog, whole blood; po 3 mg/kg
VALUE TYPE: AUC(0-t)
Answers are plain numbers.

Which AUC(0-t) value is on record for CC(C)C[C@@H]1NCCN([C@@H](CC(C)C)C(=O)N2CCC3(C[C@@H]2C)OCC(CN2CCCC2)CO3)C1=O (stereo partly shown) ? 0.182

* * *

Test: 14-day daily oral repeated-dose DRF study in Beagle dogs (citrate salt)
Type: in vivo
Conditions: both sexes, Beagle, dog, plasma, po; 0.1 and 0.3 mg/kg/day, Day 14; read-out: terminal elimination half-lives
VALUE TYPE: half-life

# query: half-life of entry CC(C)C[C@@H]1NCCN([C@@H](CC(C)C)C(=O)N2CCC3(C[C@@H]2C)OCC(CN2CCCC2)CO3)C1=O (stereo partly shown) 4.7 to 5.5 h

* * *

Test: Single dose oral and intravenous PK in CD-1 mice (mesylate salt), blood
Assay type: in vivo
Set-up: unit not given here
Settings: male, CD-1, mouse, whole blood; intravenous 5 mg/kg
VALUE TYPE: AUC(0-inf)

What does the data say about its AUC(0-inf)? Entry: CC(C)C[C@@H]1NCCN([C@@H](CC(C)C)C(=O)N2CCC3(C[C@@H]2C)OCC(CN2CCCC2)CO3)C1=O (stereo partly shown) 1.11

* * *

Assay: 5-day daily oral repeated-dose pilot study in cynomolgus monkeys (mesylate salt)
Assay type: in vivo
Details: both sexes, cynomolgus monkey, serum, po, 8 mg/kg/day, Day 5; read-out: Cmax
VALUE TYPE: Cmax (ng/mL)
Answers are plain numbers, in ng/mL.

Would you kindly share the measured Cmax for CC(C)C[C@@H]1NCCN([C@@H](CC(C)C)C(=O)N2CCC3(C[C@@H]2C)OCC(CN2CCCC2)CO3)C1=O (stereo partly shown) ? 64

* * *

Assay: Single dose oral and intravenous PK in CD-1 mice (mesylate salt), blood
Type: in vivo
Settings: male, CD-1, mouse, whole blood; intravenous 50 mg/kg
VALUE TYPE: half-life (h)
Give bare numbers, in h.

Bench note: what half-life did CC(C)C[C@@H]1NCCN([C@@H](CC(C)C)C(=O)N2CCC3(C[C@@H]2C)OCC(CN2CCCC2)CO3)C1=O (stereo partly shown) show? 1.6

* * *

Assay: Plasma protein binding, equilibrium dialysis
Type: in vitro ADME
Details: mouse plasma, 37° C, buffer pH 7.4; read-out: Fraction unbound (Fu), Mean
VALUE TYPE: fraction unbound
Answers are plain numbers.

Form field: reported fraction unbound of CC(C)C[C@@H]1NCCN([C@@H](CC(C)C)C(=O)N2CCC3(C[C@@H]2C)OCC(CN2CCCC2)CO3)C1=O (stereo partly shown) [Compound 1] 0.574

* * *

Assay: Single dose intravenous and oral PK in Beagle dogs (citrate salt)
Format: in vivo
Parameters: unit not given here
Conditions: both sexes, Beagle, dog, whole blood; po 12 mg/kg
VALUE TYPE: AUC(0-inf)
One number for each entry.

Field request: AUC(0-inf) | item: CC(C)C[C@@H]1NCCN([C@@H](CC(C)C)C(=O)N2CCC3(C[C@@H]2C)OCC(CN2CCCC2)CO3)C1=O (stereo partly shown) 2.39

* * *

Assay: 28-day once weekly oral repeated-dose DRF study in cynomolgus monkeys (mesylate salt)
Assay type: in vivo
Conditions: male, cynomolgus monkey, blood, po, 60 mg/kg, M, Day 22
VALUE TYPE: Cmax (ng/mL)
Numbers only, in ng/mL.

What does the record list as Cmax for CC(C)C[C@@H]1NCCN([C@@H](CC(C)C)C(=O)N2CCC3(C[C@@H]2C)OCC(CN2CCCC2)CO3)C1=O (stereo partly shown) ? 2430
